# Target Desc: GST tagged truncated human mutant G2019S LRRK2 (Homo sapiens (Human), UniProt Q5S007, G2019S)
# Sequence (Q5S007 970-2527 G2019S): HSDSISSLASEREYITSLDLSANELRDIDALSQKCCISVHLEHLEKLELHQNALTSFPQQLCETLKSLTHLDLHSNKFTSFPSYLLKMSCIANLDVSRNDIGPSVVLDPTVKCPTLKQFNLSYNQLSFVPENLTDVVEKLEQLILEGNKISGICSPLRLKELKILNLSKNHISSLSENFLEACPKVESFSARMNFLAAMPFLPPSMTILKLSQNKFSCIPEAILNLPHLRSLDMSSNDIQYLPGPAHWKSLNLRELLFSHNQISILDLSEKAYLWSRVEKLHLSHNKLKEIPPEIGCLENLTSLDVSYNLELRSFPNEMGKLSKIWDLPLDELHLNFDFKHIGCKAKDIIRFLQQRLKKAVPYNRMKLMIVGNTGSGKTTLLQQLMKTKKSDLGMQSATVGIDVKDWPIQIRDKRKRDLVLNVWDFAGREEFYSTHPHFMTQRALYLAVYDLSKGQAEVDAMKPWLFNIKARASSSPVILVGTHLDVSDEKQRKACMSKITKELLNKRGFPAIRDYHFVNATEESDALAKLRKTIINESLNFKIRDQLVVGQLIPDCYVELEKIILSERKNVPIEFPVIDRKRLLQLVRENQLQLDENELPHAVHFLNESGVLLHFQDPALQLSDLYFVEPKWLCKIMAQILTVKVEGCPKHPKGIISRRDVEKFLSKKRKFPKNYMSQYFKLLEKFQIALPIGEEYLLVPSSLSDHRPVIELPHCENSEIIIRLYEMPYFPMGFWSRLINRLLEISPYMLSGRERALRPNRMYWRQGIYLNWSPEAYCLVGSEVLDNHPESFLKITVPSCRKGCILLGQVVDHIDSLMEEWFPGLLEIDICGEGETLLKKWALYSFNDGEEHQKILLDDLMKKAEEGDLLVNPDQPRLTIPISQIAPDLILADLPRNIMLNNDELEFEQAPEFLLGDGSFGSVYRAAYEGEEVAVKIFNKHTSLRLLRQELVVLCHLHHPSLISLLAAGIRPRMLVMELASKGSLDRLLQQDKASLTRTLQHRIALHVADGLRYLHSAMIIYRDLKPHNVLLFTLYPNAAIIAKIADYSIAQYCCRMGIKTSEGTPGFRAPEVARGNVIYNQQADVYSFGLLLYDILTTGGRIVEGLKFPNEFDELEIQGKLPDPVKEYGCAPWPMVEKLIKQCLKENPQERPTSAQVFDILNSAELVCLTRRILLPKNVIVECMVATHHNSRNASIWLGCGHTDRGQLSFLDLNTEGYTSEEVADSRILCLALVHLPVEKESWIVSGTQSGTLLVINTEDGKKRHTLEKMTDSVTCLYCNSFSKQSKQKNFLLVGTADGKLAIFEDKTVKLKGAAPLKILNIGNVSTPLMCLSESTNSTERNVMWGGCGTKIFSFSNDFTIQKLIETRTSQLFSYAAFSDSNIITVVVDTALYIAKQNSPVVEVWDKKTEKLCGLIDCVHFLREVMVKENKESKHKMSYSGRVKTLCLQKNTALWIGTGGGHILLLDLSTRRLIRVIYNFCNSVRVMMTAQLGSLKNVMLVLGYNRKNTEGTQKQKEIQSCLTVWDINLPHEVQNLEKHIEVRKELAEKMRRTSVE
# Method: LRRK2 Km ATP LanthaScreen Assay
# Type: biochemical
# Test Settings: 134 μM ATP (Km ATP), LRRKtide substrate, negative log of mean IC50 (molar)
Property Name: LRRK2 pIC50

> print(dat)
                         compound.structure  recorded.measurement
1  O=C(Nc1cnn(C2CC2)c1)c1csc(-c2cn[nH]c2)n1                  7.65
2  O=C(Nc1cnn(C2CC2)c1)c1cccc(-c2cnn(CC(F)(F)F)c2)n1                  7.98
3  Cc1nn(C2CCC2)cc1NC(=O)c1csc(-c2cnn(C)c2)n1                  7.30

Origin of measurements: patent US20240174679A1
